# TARGET_SYSTEM: Arginase-2, mitochondrial (Homo sapiens)
# Sequence (whole entry): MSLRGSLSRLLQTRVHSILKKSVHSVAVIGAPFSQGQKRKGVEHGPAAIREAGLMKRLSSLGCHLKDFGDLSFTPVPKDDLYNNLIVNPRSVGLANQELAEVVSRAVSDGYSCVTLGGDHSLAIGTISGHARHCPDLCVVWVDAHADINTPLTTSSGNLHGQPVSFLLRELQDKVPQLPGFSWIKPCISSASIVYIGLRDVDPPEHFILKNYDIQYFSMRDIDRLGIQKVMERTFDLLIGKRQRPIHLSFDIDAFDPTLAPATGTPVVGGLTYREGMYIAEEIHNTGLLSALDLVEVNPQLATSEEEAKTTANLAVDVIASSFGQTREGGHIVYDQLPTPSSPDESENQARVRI
# EXPERIMENTAL_DETAILS: in vitro enzyme assay to detect the production of urea directly proportional to the activity of Arginase II
# Type: functional
# Set-up: scale not given: in the data most compounds retested in dose-response had high values
# CONDITION_NOTES: 33.3 µM
Recorded Percent Effect for the following compounds
OBSERVABLE: Percent Effect

>>> print(df.to_string())
                                    compound      observable   result
 0   Cn1ccc(CN2CCC(NC(=O)NC3CCCCC3)CC2)cc1=O  Percent Effect    6.15%
 1  OC(COCc1ccccc1F)CN1CCc2c(ncn2C2CC2)C1 (stereo not given)  Percent Effect    2.66%
 2                COc1ncccc1CNC(=O)c1cccnc1O  Percent Effect    1.23%
 3  CCS(=O)(=O)CCN1CCC(N(C)Cc2noc(C(C)C)n2)C1 (stereo not given)  Percent Effect  -0.205%
 4  Cc1csc(N2CCCN(C(=O)c3c(C)oc(C)c3C)CC2)n1  Percent Effect   -1.77%
 5  CCOCCN1CCCC(c2cc(C(N)=O)[nH]n2)C1 (stereo not given)  Percent Effect    3.99%
 6  CC(C)(C)C(O)CN1CCN(C(=O)c2cccc3ncccc23)CC1 (stereo not given)  Percent Effect   -0.41%
 7  COc1c(C2CCCN2C(=O)c2cncnc2C)c(C)nn1C (stereo not given)  Percent Effect   -3.48%
 8   NCc1cn(-c2ccccc2C(=O)NCc2cccc(Cl)c2)cn1  Percent Effect    1.33%
 9        CC(C)CN1CCC2(CCN(Cc3ccoc3)CC2)C1=O  Percent Effect   -4.57%
10     Cc1nn(C)c(N(C)C)c1CNCCCN(C)S(C)(=O)=O  Percent Effect    5.33%
11  N#Cc1cccc(N2CC3(CCN(C(=O)c4cccnc4)C3)CC2=O)c1 (stereo not given)  Percent Effect   -3.64%
12  Cc1ccc(C(=O)N2CCC3(CC2)CC(N2CCOCC2)C3)cc1  Percent Effect   0.457%
13  O=C1CC(c2ccccc2)C2(CCN(Cc3ccccn3)CC2)N1 (stereo not given)  Percent Effect     3.2%
14  Cc1cnn(CC2CCCCN2CCn2cncn2)c1 (stereo not given)  Percent Effect    4.88%
15  O=C(NCCC1=CCCCC1)C1CCCN(c2ccc3nncn3n2)C1 (stereo not given)  Percent Effect   -9.44%
16    CC(C)n1ccnc1CN1CCCN(C(=O)c2nccnc2N)CC1  Percent Effect       0%
17  CCOC1COC2(CCN(S(=O)(=O)c3cccc(F)c3)CC2)C1 (stereo not given)  Percent Effect    6.07%
18  CN(C)C(=O)CCC(=O)NCc1cccnc1-n1cnc2ccccc21  Percent Effect   -9.44%
19  O=C(Nc1cccc2c1CCCC2)C1CCCN1c1nccs1 (stereo not given)  Percent Effect    4.51%
20               O=C(NCC(=O)N1CCCCC1)c1ccoc1  Percent Effect    2.25%
21  CC(C)C(=O)N1CCC2(CCCN(CCOc3ccccc3)C2)C1 (stereo not given)  Percent Effect    1.83%
22         CC(C)c1cc(NC(=O)CN2CCNC(=O)C2)on1  Percent Effect   -1.43%
23  CCc1[nH]ncc1C(=O)N1CCCC(n2ccnc2C(C)C)C1 (stereo not given)  Percent Effect   0.887%
24  CCOC(=O)N1CCN(C(=O)c2sc(-c3ccc(F)cc3)nc2C)CC1  Percent Effect    1.05%
